Target System: Shaker voltage-gated potassium channel (Drosophila melanogaster, UniProt P08510)
Sequence (P08510 whole entry): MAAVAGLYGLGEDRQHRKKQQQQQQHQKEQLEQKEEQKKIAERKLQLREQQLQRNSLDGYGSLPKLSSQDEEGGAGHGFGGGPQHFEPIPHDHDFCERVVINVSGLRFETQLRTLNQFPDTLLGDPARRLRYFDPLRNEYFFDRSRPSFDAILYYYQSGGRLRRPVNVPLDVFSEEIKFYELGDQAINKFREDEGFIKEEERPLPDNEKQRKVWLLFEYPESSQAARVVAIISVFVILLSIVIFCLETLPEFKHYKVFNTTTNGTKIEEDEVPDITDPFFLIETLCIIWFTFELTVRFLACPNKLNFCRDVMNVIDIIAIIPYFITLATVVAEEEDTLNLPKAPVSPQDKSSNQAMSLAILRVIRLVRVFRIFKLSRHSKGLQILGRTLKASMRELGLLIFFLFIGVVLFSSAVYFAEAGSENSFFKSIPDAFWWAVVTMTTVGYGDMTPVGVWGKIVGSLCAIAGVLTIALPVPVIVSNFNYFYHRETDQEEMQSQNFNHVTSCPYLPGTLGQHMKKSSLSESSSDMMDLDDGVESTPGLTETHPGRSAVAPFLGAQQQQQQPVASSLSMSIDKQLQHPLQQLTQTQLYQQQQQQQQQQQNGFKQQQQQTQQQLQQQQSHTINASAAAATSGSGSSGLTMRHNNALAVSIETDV
Assay Notes: cut-open voltage clamp electrophysiology of K+ currents in Xenopus laevis oocytes expressing Shaker
Assay type: cell-based, D. melanogaster
Conditions: pH 6.4, Hermann equation; read-out: IC50 (at V=0) ± s.d.
Quantity Measured: IC50 (µM)
Express your answer in µM, writing the number without its unit.

## Task Which measured IC50 belongs to Cc1cncc(F)c1N , tested on Shaker voltage-gated potassium channel (Drosophila melanogaster, UniProt P08510)?
## Result 118

* * *

Target System: Shaker voltage-gated potassium channel (Drosophila melanogaster, UniProt P08510)
Assay Notes: cut-open voltage clamp electrophysiology of K+ currents in Xenopus laevis oocytes expressing Shaker
Format: cell-based, D. melanogaster
Conditions: pH 7.4, Hermann equation; read-out: IC50 (at V=0) ± s.d.
Quantity Measured: pIC50
Hey, just a heads up that pIC50 is the negative log base 10 of the concentration in molar.

## Task Which measured pIC50 belongs to Cc1cncc(F)c1N , tested on Shaker voltage-gated potassium channel (Drosophila melanogaster, UniProt P08510)?
## Result 3.79

* * *

Assay Notes: pKa determination by titration with HCl (Gran plot)
Assay type: physicochemical
Conditions: n = 4
Quantity Measured: pKa
// return a plain number; no unit text

Cc1cncc(F)c1N ... 7.46

Please look at the following compound next.
## Task What value of pKa has been recorded for this entry: Nc1ccncc1F
## Result 7.37

* * *

Target System: Shaker voltage-gated potassium channel (Drosophila melanogaster)
Assay Notes: cut-open voltage clamp electrophysiology of K+ currents in Xenopus laevis oocytes expressing Shaker
Format: cell-based, D. melanogaster
Conditions: pH 9.1, Hermann equation; read-out: IC50 (at V=0) ± s.d.
Quantity Measured: IC50
Dear colleague, please send the value followed by its unit.

## Task Which measured IC50 belongs to Cc1cncc(F)c1N , tested on Shaker voltage-gated potassium channel (Drosophila melanogaster)?
## Result 373 µM
